Biological target: T1, monomeric human TNFR2 extracellular domain (human, UniProt P20333 23-257)
T1 construct: extracellular domain; Analyte in the Octet experiments; also called human TNFR2 ECD
T1 sequence (looked up): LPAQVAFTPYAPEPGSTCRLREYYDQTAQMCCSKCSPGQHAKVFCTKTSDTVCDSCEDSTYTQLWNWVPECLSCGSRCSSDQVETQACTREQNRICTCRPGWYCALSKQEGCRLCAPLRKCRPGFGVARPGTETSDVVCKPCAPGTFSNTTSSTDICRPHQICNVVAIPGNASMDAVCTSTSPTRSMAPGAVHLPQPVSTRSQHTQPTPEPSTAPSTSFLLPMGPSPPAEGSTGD
Assay: BLI (Octet Red 96), antibody captured on Fc biosensor, monomeric TNFR2 ECD in solution, 1:1 model
Experimental: Analysis of binding to the human and cynomolgus TNFR2 ECD was performed using an Octet Red 96 Instrument™ (ForteBio). […] The interacting monomeric human or cynomolgus ECD was used at 5-6 concentrations of a 3-fold concentration series. The data were analyzed using Octet Data Analysis Software 9.0™ (ForteBio) and fit to the 1:1 binding model. The equilibrium dissociation constants (Kd) were calculated by the ratio of […].
Assay endpoint: Kd (nM)
Answer with a number only, understood to be in nM.

Binder	Reading unit	Kd
SBT-001 (antibody, V domains shown, Parental mouse antibody; also called mouse SBT-001) VH: EVQLQQSGAELVKPGASVKISCKASGYTFTDYNMDWVKQSHGKSLEWIGDINPNYESTSYNQKFKGKATLTVDKSSSTAYMEVRSLTSEDTAVFYCARDKGWYFDVWGAGTTVTVSS VL: ENVLTQSPAIMSASLGEKVTMSCRASSSVKNMYWYQQKSDASPKLWIYYTSNLAPGVPARFSGSGSGNSYSLTISSMEGEDAATYYCQQFTSSPYTFGGGTKLELK	nM	2.7
SBT-002 (antibody, V domains shown, Parental mouse antibody; also called mouse SBT-002) VH: QVTLKESGPGILQPSQTLSLTCSFSGFSLSTSGMGVGWIRQPSGKGLEWLAHIWWDDDKFYNPSLKSQLTISKDTSRNQVFLKLTSVVTADTATYYCARLTGTRYFDYWGQGTTLTVSS VL: DVQMTQSPSSLSASLGGKVTITCKASQDINKFIAWYQHKPGKGPRLLIHYTSTLQPGIPSKFSGSGSGRDYSFSISNLEPEDIATYYCLQYGNLWTFGGGTKLEIT	nM	1.3

Please examine the following record next.
The value of Kd measured for the binder chimeric SBT-001 (antibody, V domains shown, also called chSBT-001) VH: EVQLQQSGAELVKPGASVKISCKASGYTFTDYNMDWVKQSHGKSLEWIGDINPNYESTSYNQKFKGKATLTVDKSSSTAYMEVRSLTSEDTAVFYCARDKGWYFDVWGAGTTVTVSS VL: ENVLTQSPAIMSASLGEKVTMSCRASSSVKNMYWYQQKSDASPKLWIYYTSNLAPGVPARFSGSGSGNSYSLTISSMEGEDAATYYCQQFTSSPYTFGGGTKLELK turned out to be 1.8

Recorded values, source patent US20190202925A1.
